Assay: chemical genetic growth profiling, strain panel (AID 1159580);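 note: tested at 20 µM; growth read once vehicle control cultures reached saturation at 30 °C; 1 = growth at the plate median or of vehicle wells; lower values mean less growth of the strain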
Conditions: S. cerevisiae deletion strains, growth OD, locus YCL011C, strain gbp2, hits give low values
Hit rate of the full screen: of about 5,500 compounds, about 2,000 (36%) were called active. About 18% were inconclusive and are not listed. The list shows a part of the results.
Reported Metric: normalized growth

Compound	Observed
CN(Cc1cc(Br)cc(Br)c1N)C1CCCCC1	1.02
CC(=O)O[C@H]1CC[C@@]2(C)C(=CCC3C2CC[C@@]2(C)C3CC[C@@H]2C(C)CCCC(C)C)C1 (some centres undefined)	0.992
COc1ccc(/C=C/c2cc(O)cc(O)c2)cc1	0.991
CC(=O)O[C@H]1CC[C@@]2(C)C(=CCC3C2CC[C@]2(C)C(=O)CCC32)C1 (some centres undefined)	0.912
COc1ccc(C=CC(=O)c2ccc(O)cc2O)cc1OC	0.934
COc1cc(/C=C/C(=O)O)ccc1O	1.01
c1cc2c(cc1[C@H]1OC[C@H]3[C@@H]1CO[C@H]3c1ccc3c(c1)OCO3)OCO2	0.881
O=C(NC(Cc1cc(=O)[nH]c2ccccc12)C(=O)O)c1ccc(Cl)cc1 (centres undefined)	1
CC[C@@H](C(=O)[C@@H](C)[C@@H](O)[C@H](C)[C@@H]1O[C@@H]([C@@H](CC)C(=O)O)CC[C@@H]1C)[C@H]1OC2(C=C[C@@H](O)[C@]3(CC[C@@](C)([C@H]4CC[C@](O)(CC)[C@H](C)O4)O3)O2)[C@H](C)C[C@@H]1C (some centres undefined)	0.867
C=CCN1CC[C@]23c4c5ccc(O)c4OC2C(=O)CC[C@@]3(O)[C@H]1C5 (some centres undefined)	0.941
CCn1cc(C(=O)O)c(=O)c2cnc(N3CCNCC3)nc21	1.04
COc1ccccc1OCC(O)CN1CCN(CC(=O)Nc2c(C)cccc2C)CC1 (centres undefined)	1.01
NC(=O)c1cnccn1	1
CCOC(N)=O	0.988

====

Experiment: chemical genetic growth profiling, strain panel (AID 1159580);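 note: tested at 20 µM; growth read once vehicle control cultures reached saturation at 30 °C; 1 = growth at the plate median or of vehicle wells; lower values mean less growth of the strain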
Conditions: S. cerevisiae deletion strains, growth OD, locus YBR021W, strain FUR4, hits give low values
Hit rate of the full screen: of about 5,500 compounds, about 2,000 (36%) were called active. About 18% were inconclusive and are not listed. The list shows a part of the results.
Reported Metric: normalized growth

> print(dat)
                                   molecule  observed
1  C[C@H](COc1ccccc1)N[C@H](C)[C@H](O)c1ccc(O)cc1     0.986
2  CCN(CC)CCOC(=O)C(Cc1cccc2ccccc12)CC1CCCO1 (stereo not given)      1.02
3  O=C1N=C(O)CN1/N=C\c1ccc(-c2ccc([N+](=O)[O-])cc2)o1      1.03
4                                 CCOC(N)=O      0.97
5                     CC12CCC(CC1)C(C)(C)O2      1.02

====

Assay: chemical genetic growth profiling, strain panel (AID 1159580);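 note: tested at 20 µM; growth read once vehicle control cultures reached saturation at 30 °C; 1 = growth at the plate median or of vehicle wells; lower values mean less growth of the strain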
Conditions: S. cerevisiae deletion strains, growth OD, locus YPL256C, strain CLN2, hits give low values
Hit rate of the full screen: of about 5,500 compounds, about 2,000 (36%) were called active. Not shown: some 18% with an inconclusive outcome. The list shows a part of the results.
Friendly reminder: normalized growth below 0.9 is MET, at or above is NOT MET.

> print(dat)
                                    compound  group.label
 1  O=C(NCc1ccco1)c1csc(C2COc3ccccc3O2)n1 (configuration not stated)          MET
 2          O=C(O)CCC(=O)c1ccc(-c2ccccc2)cc1          MET
 3  CC1(C)C2CC(=O)O[C@@]3(C)C4=CC(=O)O[C@@H](c5ccoc5)[C@]4(C)CCC3[C@@]2(C)C=C[C@H]1O (some centres not stated)      NOT MET
 4  CCOC(=O)c1c(N=Cc2cc(Br)c(Br)cc2O)sc2c1CCCC2          MET
 5                       CCOC(=O)c1ccc(N)cc1      NOT MET
 6  O=C(Nc1ccccn1)c1cc(-c2ccccc2)c(C(F)(F)F)s1          MET
 7  O=C(/C=C/c1ccc(O)c(O)c1)O[C@@H]1C[C@](O)(C(=O)O)C[C@@H](O)[C@H]1O      NOT MET
 8                     Nc1ccc(S(=O)(=O)O)cc1      NOT MET
 9  COc1ccc(-c2cc(C(F)F)nn2-c2ccc(S(N)(=O)=O)cc2)cc1F      NOT MET
10  CC1(C)CC2C1CCC1(C)OC2(C)CCC1O (configuration not stated)      NOT MET
11                  COc1cc(/C=C/C(=O)O)ccc1O      NOT MET
12  CC1(C)O[C@@H]2[C@@H](CO[C@@]3(COS(N)(=O)=O)OC(C)(C)O[C@@H]23)O1      NOT MET
13          Clc1ccc(-c2noc(CSC3=NCCN3)n2)cc1      NOT MET
14  CC12CCCC(O)(C1)C1CC(C)(C)C1CC2 (configuration not stated)      NOT MET
15        COc1ccc(/C=C/C(=O)c2ccc(O)cc2O)cc1          MET

====

Entries and their normalized growth values follow.
Experiment: chemical genetic growth profiling, strain panel (AID 1159580);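 note: tested at 20 µM; growth read once vehicle control cultures reached saturation at 30 °C; 1 = growth at the plate median or of vehicle wells; lower values mean less growth of the strain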
Details: S. cerevisiae deletion strains, growth OD, locus YNL197C, strain WHI3, hits give low values
Screen size: about 5,500 compounds; about 2,000 (36%) were called active. Inconclusive results (about 18%) are left out. The list shows a part of the results.
Reported Metric: normalized growth

> print(dat)
                                    molecule    reported.metric  observed
 1    NC(=O)CCC(N)C(=O)O (centres undefined)  normalized growth     0.997
 2                  CC(N)=NCCC[C@H](N)C(=O)O  normalized growth     0.999
 3           CN1CCc2cc(NC(=O)Nc3cccnc3)ccc21  normalized growth     0.992
 4                          CCN1C(=O)C=CC1=O  normalized growth      1.01
 5                        COc1ccccc1N1CCNCC1  normalized growth      1.02
 6  NC(N)=NOCCC(N)C(=O)O (centres undefined)  normalized growth     0.984
 7  COc1cc2c(cc1C(F)(F)F)N(C(=O)Nc1cc(F)cc(-c3cccnc3)c1)CC2  normalized growth      1.01
 8              CCCN(CCC)CCc1cccc2c1CC(=O)N2  normalized growth     0.999
 9                 Cc1ccc(O)c(N=Nc2ccccc2)n1  normalized growth     0.977
10       Cn1ccc2cc3c(cc21)CCN3C(=O)Nc1cccnc1  normalized growth         1
11  COCC(=O)O[C@]1(CCN(C)CCCc2nc3ccccc3[nH]2)CCc2cc(F)ccc2[C@@H]1C(C)C  normalized growth      1.04
12  CC1=C(/C=C/C(C)=C/C=C/C(C)=C/C(=O)Nc2ccc(O)cc2)C(C)(C)CCC1  normalized growth      1.01
13  O=C1N=C(O)CN1/N=C\c1ccc(-c2ccc([N+](=O)[O-])cc2)o1  normalized growth      1.03
14        O=C(OCCN1CCOCC1)C1(c2ccccc2)CCCCC1  normalized growth     0.999
15              N#Cc1c(-c2ccccc2)no[n+]1[O-]  normalized growth     0.902
16                                     [Li+]  normalized growth      1.02
17                  c1ccc2c(N3CCNCC3)cccc2c1  normalized growth     0.997
18  CC1=C(/C=C/C(C)=C/C=C/C(C)=C/C(=O)O)C(C)(C)CCC1  normalized growth      1.04
19  CCCn1c(=O)c2[nH]c(-c3ccc(S(=O)(=O)O)cc3)nc2n(CCC)c1=O  normalized growth      0.99
20  Cc1cn([C@H]2C[C@@H](N=[N+]=[N-])[C@@H](CO)O2)c(=O)[nH]c1=O  normalized growth         1
21            Oc1ccc(/C=C/c2cc(O)cc(O)c2)cc1  normalized growth     0.966
22                CC(N)=NCCCC[C@@H](N)C(=O)O  normalized growth      1.01
23  CC12C(=O)OC(=O)C1(C)C1CCC2O1 (centres undefined)  normalized growth     0.879
24    COC(=O)[C@@H](N)CCCN=C(N)N[N+](=O)[O-]  normalized growth     0.994
